The measured values listed here are drawn from paper PMC5540273.

System: BRK
Construct: gene PTK6
Condition Context: concentration: 1 μM,replicates: in singlicate; n = 1;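 also: KINOMEscan kinase panel screen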
Measured Attribute: %Inh (%)
Answers are plain numbers, in %.

Solved cases below.
INSERT INTO measurements (compound, measured_attribute, value_measured) VALUES
  ('O=C(Nc1cccc(C(F)(F)F)c1)c1cccc(Oc2ccc3nccn3n2)c1', '%Inh', 4),
  ('NC(=O)Nc1sc(-c2ccc(F)cc2)cc1C(N)=O [GW789449]', '%Inh', 0),
  ('CC(C)c1nc(-c2cccc(NS(=O)(=O)c3ccccc3)c2)c(-c2ccnc(Nc3ccc4c(c3)CN(C)CC4)n2)s1 [GSK1649598]', '%Inh', 99.4),
  ('C[C@@H]1CCN(C(=O)N2CCCC2)C[C@@H]1N(C)c1ncnc2[nH]ccc12', '%Inh', 0),
  ('CS(=O)(=O)Nc1ccc(-c2ccnc3[nH]ccc23)cc1 [GSK993273]', '%Inh', 0),
  ('Cc1ccc2c(-c3ccnc(Nc4ccc(C(F)(F)F)cc4)n3)cnn2n1 [GW819776]', '%Inh', 4);

Fill in %Inh for each of the 5 compounds listed.
1. CC(=O)Nc1nc2cnc(Nc3cc(NC(=O)c4cccc(CC(C)(C)C#N)c4)ccc3C)nc2s1
2. Cn1ccc2ncnc(Oc3ccc(NC(=O)Nc4ccnc(C(F)(F)F)c4)c(Cl)c3)c21
3. Cc1cccc2c(-c3ccncc3)c(-c3ccc(F)cc3)nn12.Cl [GW461487]
4. N#Cc1cccc(C(=O)NC2CCN(c3ccnc(Nc4ccc(F)cc4)n3)C2)c1 (centres unmarked) [GSK1379708]
5. O=C(Nc1ccc(Oc2ccc3nc(NC(=O)C4CC4)cn3n2)c(F)c1)c1cccn(-c2ccccc2)c1=O

1. 0
2. 0
3. 0
4. 16
5. 72

###

Tested on: CLK2
Condition Context: concentration: 1 μM,replicates: in singlicate; n = 1
Measured Attribute: %Inh (%)
One number for each entry, in %.

Fill in %Inh for each of the 5 compounds listed.
1. FC(F)(F)c1cc(Br)cc(Nc2nccc(-c3cnn4ncccc34)n2)c1 [GW810578]
2. CCOC(=O)N1CCC(n2cnc(-c3ccc(F)cc3)c2-c2ccnc(N)n2)CC1 [SB-219952]
3. COc1cc2nccc(Nc3ccc(Oc4ccccc4)cc3)c2cc1OC.Cl [GI261656]
4. COc1cccc(OC)c1C(=O)Nc1cccc(-c2nn3ccccc3c2-c2ccnc(Nc3cccc(F)c3)n2)c1 [GSK361065]
5. Cc1ccc2c(-c3ccnc(Nc4ccc(C(F)(F)F)cc4)n3)cnn2n1 [GW819776]

[95.6, 0, 0, 21, 72]

Fill in %Inh for each of the 6 compounds listed.
1. O=C(NOCC1CC1)c1cc(Br)c(F)c(F)c1Nc1ccc(I)cc1Cl
2. CCn1c(-c2nonc2N)nc2cncc(Br)c21 [SB-738004]
3. Cn1cc(-c2cccc3c(N)c(C(N)=O)nnc23)cn1
4. Cn1ccc2ncnc(Oc3ccc(NC(=O)Nc4cccc(C(F)(F)F)c4)c(Cl)c3)c21
5. Cl.c1ccc(Oc2ccc(Nc3ccnc4cc(-c5ccc(CN6CCNCC6)o5)ccc34)cc2)nc1 [GW567142]
6. Cc1ccc(Nc2ccnc(Nc3ccc4c(c3)CS(=O)(=O)C4)n2)cc1O.Cl [GW579362]

[9, 77, 78, 1, 0, 16]

###

Tested on: PIM1
Condition Context: concentration: 1 μM,replicates: in singlicate; n = 1
Mark True only when %Inh stays strictly below 20%. Values equal to the cut-off are False.

INSERT INTO measurements (compound, qualitative_label) VALUES
  ('COc1cccc(OC)c1C(=O)Nc1cccc(-c2nn3ccccc3c2-c2ccnc(Nc3cccc(F)c3)n2)c1', 'True'),
  ('CCNCC(Cc1ccccc1)NC(=O)c1cc(Br)c(-c2ccnc3[nH]ccc23)s1.Cl.Cl (stereo not shown)', 'False'),
  ('CN1CCN(CCCNc2nccc(-c3c(-c4ccc(F)cc4)nn4cc(C(N)=O)ccc34)n2)CC1', 'False'),
  ('CN(c1ccc2c(c1)nc(NCc1ccc(F)cc1)n2C)c1ccnc(Nc2ccc(CS(C)(=O)=O)cc2)n1.Cl', 'True');

Is 20% strictly greater than the compound's reported %Inh? compound: Cc1ccn2nc(-c3ccc(F)cc3)c(-c3ccncc3)c2c1.Cl
True

Is 20% strictly greater than the compound's reported %Inh? compound: COC(=O)Nc1nc2cc(Oc3ccc(NC(=O)Nc4cc(C(F)(F)F)ccc4Cl)cc3)ccc2[nH]1.Cl
False

Is 20% strictly greater than the compound's reported %Inh? compound: NC(=O)Nc1sc(-c2ccc(F)cc2)cc1C(N)=O
True

Is 20% strictly greater than the compound's reported %Inh? compound: Cc1nnc(-c2ccc3occ(-c4ccc(S(C)=O)cc4)c3n2)o1 (stereo not shown)
True

Is 20% strictly greater than the compound's reported %Inh? compound: CCn1c(-c2nonc2N)nc2cncc(Br)c21
False

Is 20% strictly greater than the compound's reported %Inh? compound: Nc1nccc(-c2ccc3c(N)n[nH]c3c2)n1
True

Is 20% strictly greater than the compound's reported %Inh? compound: Cc1ccc(C(=O)Nc2ccc(Oc3ccc4nc(NC(=O)C5CC5)cn4c3)c(F)c2)c(=O)n1-c1ccccc1
True

Is 20% strictly greater than the compound's reported %Inh? compound: CCOC(=O)N1CCC(n2cnc(-c3ccc(F)cc3)c2-c2ccnc(N)n2)CC1
True

Is 20% strictly greater than the compound's reported %Inh? compound: C[C@@H]1CNc2c(sc3ccc4nc(-c5ccc(O)cc5)ccc4c23)C(=O)N1
False

###

Would you mind telling me the reported %Inh of each entry?
Test system: PIK3CG
Condition Context: concentration: 1 μM,replicates: in singlicate; n = 1
Answers are plain numbers, in %.

INSERT INTO measurements (mol, measured_attribute, value_measured) VALUES
  ('CS(=O)(=O)Nc1ccc(-c2ccnc3[nH]ccc23)cc1', '%Inh', 7),
  ('COC(=O)Nc1nc2cc(Oc3ccc(NC(=O)Nc4cc(C(F)(F)F)ccc4Cl)cc3)ccc2[nH]1.Cl', '%Inh', 0);

Lab note: next compound to report on.
The compound listed as CS(=O)(=O)c1cccc(CNc2nc(Nc3ccc4c(c3)[C@@H]3C[C@@H]4CNC3=O)ncc2C(F)(F)F)c1 has a reported %Inh of 0

###

Test system: ALK
Condition Context: concentration: 1 μM,replicates: in singlicate; n = 1
Mark Y only when %Inh stays strictly below 20%. Values equal to the cut-off are N.

Past entries and their recorded results:
INSERT INTO assay_data (compound, qualitative_label) VALUES
  ('CCN1CCN(CCCC(=O)Nc2n[nH]c3nc(-c4ccc(O)cc4)c(Br)cc23)CC1', 'Y'),
  ('C[C@@H]1CNc2c(sc3ccc4nc(-c5ccncc5)ccc4c23)C(=O)N1', 'N'),
  ('C[C@@H](Oc1cc(-n2cnc3cc(-c4ccncc4)ccc32)sc1C(N)=O)c1ccccc1Cl', 'N'),
  ('COc1cc2ncn(-c3cc(OCC4CCCCC4)c(C(N)=O)s3)c2cc1OC', 'N'),
  ('CN1CCN(CCCNc2nccc(-c3c(-c4ccc(F)cc4)nn4cc(C(N)=O)ccc34)n2)CC1', 'N');

Is 20% strictly greater than the compound's reported %Inh? compound: CN1CCN(CCNc2nc3cc(Oc4ccc(NC(=O)Nc5cc(C(F)(F)F)ccc5F)cc4)ccc3[nH]2)CC1.Cl.Cl
Y

Is 20% strictly greater than the compound's reported %Inh? compound: CC(=O)Nc1ccc(-c2cc3ncnc(SCC(=O)O)c3s2)cc1
Y

Is 20% strictly greater than the compound's reported %Inh? compound: COc1cccc(C2=C(Nc3cccc(Cl)c3)C(=O)NC2=O)c1
N

Is 20% strictly greater than the compound's reported %Inh? compound: COC(=O)c1cccc(NC(=O)NC2CCN(c3ccnc(NCc4ccc(F)cc4)n3)CC2)c1
N

Is 20% strictly greater than the compound's reported %Inh? compound: CCCC(=O)Nc1n[nH]c2ncccc12
Y

Is 20% strictly greater than the compound's reported %Inh? compound: Cn1ccc2ncnc(Oc3ccc(NC(=O)Nc4cncc(C(F)(F)F)c4)c(Cl)c3)c21
Y

Is 20% strictly greater than the compound's reported %Inh? compound: C[C@@H]1CNc2c(sc3ccc4nc(-c5ccc(O)cc5)ccc4c23)C(=O)N1
Y

Is 20% strictly greater than the compound's reported %Inh? compound: Cc1nnc(-c2ccc3occ(-c4ccc(S(C)=O)cc4)c3n2)o1 (stereo not drawn)
Y

###

Would you mind telling me the reported %Inh of each entry?
Tested on: CAMK2A
Condition Context: concentration: 1 μM,replicates: in singlicate; n = 1
Put your answer as a value accompanied by its unit after it.

Solved cases below.
INSERT INTO results (compound, measured_attribute, value_measured) VALUES
  ('CN(c1ccccc1CNc1nc(Nc2ccc3c(c2)CC(=O)N3)ncc1C(F)(F)F)S(C)(=O)=O', '%Inh', '22%'),
  ('CC(C(=O)NC1CCN(c2ccnc(Nc3ccc(F)cc3)n2)C1)c1ccc(Cl)cc1 (stereo not shown) [GSK1379713]', '%Inh', '0%'),
  ('NC(=O)Nc1sc(-c2ccc(F)cc2)cc1C(N)=O [GW789449]', '%Inh', '0%');

Lab note: next compound to report on.
The compound listed as Cn1ccc2ncnc(Oc3ccc(NC(=O)Nc4cccc(C(F)(F)F)c4)c(Cl)c3)c21 has a reported %Inh of 0%
